# MEASURED TARGET: Mu opioid receptor (Homo sapiens, UniProt P35372)
# Sequence (P35372 whole entry): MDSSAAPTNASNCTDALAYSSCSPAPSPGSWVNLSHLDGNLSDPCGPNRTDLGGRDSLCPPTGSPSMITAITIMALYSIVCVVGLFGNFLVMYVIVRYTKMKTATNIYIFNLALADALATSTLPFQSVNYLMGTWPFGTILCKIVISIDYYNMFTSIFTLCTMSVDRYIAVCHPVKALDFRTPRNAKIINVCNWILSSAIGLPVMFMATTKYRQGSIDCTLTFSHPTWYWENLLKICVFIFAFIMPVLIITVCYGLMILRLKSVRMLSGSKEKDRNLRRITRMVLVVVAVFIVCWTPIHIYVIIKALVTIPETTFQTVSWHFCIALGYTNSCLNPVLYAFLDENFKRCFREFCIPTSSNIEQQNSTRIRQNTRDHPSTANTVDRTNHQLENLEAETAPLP
# EXPERIMENTAL PROTOCOL: Affinity at the μ receptor ([35S]GTPγS membrane assay)
# Assay type: binding
# MEASUREMENT PARAMETERS: opioid receptor membranes, 30 min room temperature, read-out: calc Ki (nM) μ

MOL	Ki, nM
CCCCN(CCCC)CCN(Cc1ccccc1)C(=O)Cc1ccccc1	40
